Molecular target: ULK1 kinase (Homo sapiens, UniProt O75385, E37A/K38A)
Sequence (O75385 1-283 E37A/K38A): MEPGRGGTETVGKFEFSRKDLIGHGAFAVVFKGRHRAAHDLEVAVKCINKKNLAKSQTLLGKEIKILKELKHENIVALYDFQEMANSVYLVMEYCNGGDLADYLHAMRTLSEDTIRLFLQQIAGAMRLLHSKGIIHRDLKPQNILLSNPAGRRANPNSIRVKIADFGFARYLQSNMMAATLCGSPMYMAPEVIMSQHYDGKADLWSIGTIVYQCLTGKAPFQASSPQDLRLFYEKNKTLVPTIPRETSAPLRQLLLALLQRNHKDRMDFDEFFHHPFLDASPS
Test: Biochemical assay for ULK1.3 (coupled pyruvate kinase/lactate dehydrogenase assay, peptide substrate)
Details: 0.1 nM ULK1 (residues 1-283), 1 mM ATP
pIC50: −log10 of the molar value.
pIC50 for assorted compounds

Illustrative cases are given below, each with its answer.
line-notation: CCc1cc(N2CCN(C)CC2=O)ccc1Nc1ncc(C(F)(F)F)c(NCCCN2CCCOC2=O)n1
measured-value: 7.00 to 7.60
--
line-notation: CCc1cc(N2CCN(C)C(=O)C2)ccc1Nc1ncc(C(F)(F)F)c(NCCCN2CCOCCC2=O)n1
measured-value: 6.30 to 7.00
--
line-notation: CCc1cc(N2CCN(C)CC2)c(F)cc1Nc1ncc(C(F)(F)F)c(NCCCN2CCCOCC2=O)n1
measured-value: 6.30 to 7.00
--
line-notation: CCc1cc(C2CCN(C)CC2)ccc1Nc1ncc(C(F)(F)F)c(NCCCN2CCOCCC2=O)n1
measured-value: 7.00 to 7.60

Now look at this one.
Identify measured pIC50 corresponding to `CCc1cc(N2CC3CCC(C2)N3)ccc1Nc1ncc(C(F)(F)F)c(NCCCN2CCOCCC2=O)n1` 7.60 to 9.00
